biological target: monkey GPC3-His protein (monkey); assay: ELISA, monkey GPC3-His coated; antibody 66.66 nM
Attribute: OD450 nm
measure: OD450 nm

INSERT INTO assay_data (binder, recorded_value) VALUES
  ('hAb003LH3L1 (antibody, human IgG1, V domains shown) VH: EVQLVQSGAEVKKPGSSVKVSCKASGYRFTDYEMHWVRQAPGQGLEWMGTIDPETGNTAYTQKFMDRVTLTADKSTSTAYMELSSLRSEDTAVYYCTRGYSFTYWGQGTLVTVSS VL: DIVMTQTPLSLPVTPGEPASISCRSSQNIVHSNGNTYLQWYLQKPGQSPQLLIFKVSNRFSGVPDRFSGSGSGTDFTLKISRVEAEDVGVYYCFQGSHVPFTFGQGTKLEIK', 2.53),
  ('hAb003LH3L1b (antibody, human IgG1, V domains shown) VH: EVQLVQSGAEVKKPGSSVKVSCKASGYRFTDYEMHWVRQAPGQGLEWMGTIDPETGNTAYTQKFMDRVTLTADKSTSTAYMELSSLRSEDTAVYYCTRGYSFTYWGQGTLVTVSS VL: DIVMTQTPLSLPVTPGEPASISCRSSQNIVHSNRNTYLQWYLQKPGQSPQLLIFKVSNRFSGVPDRFSGSGSGTDFTLKISRVEAEDVGVYYCFQGSHVPFTFGQGTKLEIK', 2.53),
  ('hAb005LH3L1 (antibody, human IgG1, V domains shown) VH: EVQLVQSGAEVKKPGASVKVSCKASGYTFTDYEMHWVRQAPGQGLEWIGAIDPETGNTAYIQKFKGRATLTTDKSTSTAYMELRSLRSDDTAVYYCTRFYSYSHWGQGTTVTVSS VL: DIVMTQTPLSLPVTPGEPASISCRSSQSLVHSNGNTYLHWYLQKPGQSPQLLIYKVSNRFSGVPDRFSGSGSGTDFTLKISRVEAEDVGVYYCSQNTHVPPTFGGGTKVEIK', 1.24);
